Conditions: in THF, 278.6 K
Attribute Measured: solubility (mole fraction)
Give bare numbers.

Recorded result, c1ccc2ccccc2c1 , solubility (mole fraction): 0.241

###

Conditions: in ethyl acetate, 293.19 K
Attribute Measured: solubility (mole fraction)
One number for each entry.

Recorded result, c1ccc2ccccc2c1 , solubility (mole fraction): 0.233

###

Conditions: in isobutyl acetate, 318.17 K
Attribute Measured: solubility (mole fraction)

Recorded result, c1ccc2ccccc2c1 , solubility (mole fraction): 0.483

###

Conditions: in DMF, 278.05 K
Attribute Measured: solubility (mole fraction)
Give bare numbers.

Recorded result, c1ccc2ccccc2c1 , solubility (mole fraction): 0.162

###

Settings: in DMF, 298.05 K
Attribute Measured: solubility (mole fraction)
Give bare numbers.

Recorded result, c1ccc2ccccc2c1 , solubility (mole fraction): 0.281

###

Details: in NMP, 283.25 K
Attribute Measured: solubility (mole fraction)
One number for each entry.

Recorded result, c1ccc2ccccc2c1 , solubility (mole fraction): 0.289
